# Tested on: C5a induced PMN migration
# procedure_details: Inhibition of C5a induced chemotaxis of human PMNs (microchamber assay)
# Format: cell-based
# run_conditions: compound concentration range between 10^−7 and 10^−8 M, C5a 10^−9 M, 60 min at 37° C.
reported_metric: % inhibition C5a induced PMN migration (%)
Give bare numbers, in %.

Take a look at these entries with their results.
INSERT INTO assay_data (smiles_record, observed_result) VALUES
  ('C[C@@H](NS(=O)(=O)c1cccs1)c1ccc(OS(=O)(=O)C(F)(F)F)cc1', 41),
  ('CC(C)[C@@H](NS(C)(=O)=O)c1ccc(OS(=O)(=O)C(F)(F)F)cc1', 40),
  ('C[C@@H](NS(=O)(=O)c1ccccc1)c1ccc(OS(=O)(=O)C(F)(F)F)cc1', 50),
  ('C[C@@H](NS(=O)(=O)c1cccs1)c1cccc(C(=O)c2ccccc2)c1', 55),
  ('C[C@@H](NC(=O)c1cccnc1)c1ccc(OS(=O)(=O)C(F)(F)F)cc1', 46);

Each of the following entries comes with a recorded value; kindly state % inhibition C5a induced PMN migration for each.
1. C[C@@H](NC(=O)CCCN1CCCCC1)c1ccc(OS(=O)(=O)C(F)(F)F)cc1
2. C[C@@H](NC(=O)C1CCC1)c1cccc(C(=O)c2ccccc2)c1
3. CC(C)C(=O)N[C@H](C)c1ccc(OS(=O)(=O)C(F)(F)F)cc1

**Result**
1. 54
2. 57
3. 60

* * *

# Test system: C5a induced PMN migration
# procedure_details: Inhibition of C5a induced chemotaxis of human PMNs (microchamber assay)
# Assay type: cell-based
# run_conditions: compound concentration range between 10^−7 and 10^−8 M, C5a 10^−9 M, 60 min at 37° C.
reported_metric: % inhibition C5a induced PMN migration (%)
Give bare numbers, in %.

Please review the entries below; each comes with its answer.
INSERT INTO assay_data (smiles_record, system_under_test, observed_result) VALUES
  ('C[C@@H](NS(C)(=O)=O)c1cccc(C(=O)c2ccccc2)c1', 'C5a induced PMN migration', 48),
  ('C[C@@H](NS(=O)(=O)c1cccnc1)c1ccc(OS(=O)(=O)C(F)(F)F)cc1', 'C5a induced PMN migration', 47),
  ('C[C@@H](NS(C)(=O)=O)c1ccc(C(C)(C)S(=O)(=O)c2ccccc2)cc1', 'C5a induced PMN migration', 64);

Please report % inhibition C5a induced PMN migration for every entry that follows.
1. C[C@@H](NS(=O)(=O)c1ccccc1)c1cccc(C(=O)c2ccccc2)c1
2. C[C@@H](NS(=O)(=O)c1cccs1)c1cccc(C(=O)c2ccco2)c1
3. C[C@@H](NS(C)(=O)=O)c1cccc(C(=O)c2ccco2)c1
4. C[C@@H](NC(=O)c1ccccc1)c1cccc(C(=O)c2ccccc2)c1
5. C[C@@H](NC(=O)c1ccco1)c1cccc(C(=O)c2ccccc2)c1
6. C[C@@H](Nc1nc(C(F)(F)F)cs1)c1cccc(C(=O)c2ccccc2)c1

**Result**
1. 59
2. 60
3. 52
4. 49
5. 63
6. 42

* * *

# Test system: C5a induced PMN migration
# procedure_details: Inhibition of C5a induced chemotaxis of human PMNs (microchamber assay)
# Format: cell-based
# run_conditions: compound concentration range between 10^−7 and 10^−8 M, C5a 10^−9 M, 60 min at 37° C.
# Description: The compounds of the invention of formula (I) were evaluated in vitro for their ability to inhibit chemotaxis of polymorphonucleate leukocytes (hereinafter referred to as PMNs) and monocytes induced by the fractions of the complement C5a and C5a-desArg. […] The cell vitality was calculated by exclusion with Trypan blue, whilst the ratio of the circulating polymorphonucleates was estimated on the cytocentrifugate after staining with Diff Quick. […]
reported_metric: % inhibition C5a induced PMN migration (%)
Give bare numbers, in %.

Below are worked cases with known answers.
INSERT INTO assay_data (compound, system_under_test, observed_result) VALUES
  ('C[C@@H](NS(=O)(=O)c1ccc(C(=O)O)o1)c1cccc(C(=O)c2ccccc2)c1 [Compound 11]', 'C5a induced PMN migration', 40),
  ('C[C@@H](NC(=O)CCCN1CCCC1)c1ccc(OS(=O)(=O)C(F)(F)F)cc1 [Compound 20]', 'C5a induced PMN migration', 47);

**Query** Looking for the measured % inhibition C5a induced PMN migration of COC(=O)c1ccc(S(=O)(=O)N[C@H](C)c2cccc(C(=O)c3ccccc3)c2)o1 [Compound 10] , can you help?
**Result** 72
